TEST DESCRIPTION: basal HepG2 mitochondrial membrane potential changes, profiling panel, cell-based, JC-1 fluorescence, 24 h, 100 nL compound (AID 1167); note: test concentration not given here
CONDITION PARAMETERS: higher = more signal
ASSAY ENDPOINT: z-score
Form field (numeric): enter value without unit.

Example entries and their recorded answers appear below.
query: Need z-score of C=CCC(OC(C)=O)[C@@H]1[C@@H](N(Cc2cccc3ccccc23)C(=O)c2cccc3ccccc23)c2cc(OCCCO)ccc2N1C(=O)c1ccc2ccccc2c1 (some centres not stated) , thanks.
result: 2.48

query: Note, next up: COCCOC(=O)N1C(=O)[C@@]2(c3cc(C#Cc4ccc(OC)cc4)ccc31)[C@H](c1ccc(OCCO)cc1)N1[C@H](c3ccccc3)[C@H](c3ccccc3)OC(=O)[C@H]1[C@@H]2C(=O)Nc1nc2ccccc2s1
result: -2.86

query: Note, next up: CC(C)N1CC=CC23O[C@@H]4/C=C\CCCOC(=O)C4[C@H]2C(=O)N(CCCCCCO)[C@@H]3C1=O (some centres not stated)
result: 1.14

query: Note, next up: CCN(CC)c1ccc(N2CC=CC34O[C@@H]5C=CCCOC(=O)C5[C@H]3C(=O)N(CCO)[C@@H]4C2=O)cc1 (some centres not stated)
result: -0.178

Next:
query: Need z-score of CN1C(=O)C2C(C1=O)C1C=C(CCCO)C2C(c2cccs2)N1Cc1cc2c(cc1Br)OCO2 (configuration not stated) , thanks.
result: -0.129

query: Note, next up: C=C[C@@H](OC)[C@H](OC(=O)Nc1ccc(SC)cc1)c1ccc(OCCO)cc1
result: -2.68

query: Note, next up: C=CCC(OC(C)=O)[C@@H]1[C@@H](N(Cc2ccc(-c3ccccc3)cc2)C(=O)Cc2ccc(F)cc2)c2cc(OCCCO)ccc2N1C(=O)Cc1ccc2ccccc2c1 (some centres not stated)
result: 2.19

Values were extracted from PubChem BioAssay.
